- Test system: BTK
- MEASUREMENT_PARAMETERS: concentration: 1 μM, replicates: in singlicate; n = 1;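 also: KINOMEscan kinase panel screen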
Reported values of %Inh for individual entries
PROPERTY: %Inh (%)

CN(C)c1cc(-c2ccc3c(N)n[nH]c3c2)nc(N)n1 | 0
CCC(=O)c1c(-c2ccccc2)c2cc(Cl)ccc2c(=O)n1Cc1cc(S(C)(=O)=O)n(CC(N)=O)n1 | 0
COc1ccc(-c2cc3c(C)nc(N)nc3n([C@H]3CC[C@H](O)CC3)c2=O)cn1 | 0
Nc1n[nH]c2ncc(-c3ccccc3)cc12 | 0
CCS(=O)c1ccc(-c2coc3ccc(-c4nnc(C)o4)cc23)cc1 (stereo not drawn) | 18
COc1ccc(-n2cnc3c(N)ncnc32)cc1 | 8
COc1cccc(C2=C(N(C)c3ccccc3)C(=O)NC2=O)c1 | 0
Cc1nn2c(=O)cc(N3CCOCC3)nc2n1Cc1cccc(Cl)c1Cl | 0
CCS(=O)(=O)c1ccc(OC)c(Nc2ncc(-c3ccc(F)cc3)o2)c1.Cl | 0

---

Reported values of %Inh for individual entries
- System: PDPK1
- MEASUREMENT_PARAMETERS: concentration: 1 μM, replicates: in singlicate; n = 1
PROPERTY: %Inh (%)

O=c1cc(N2CCOCC2)nc2n(Cc3ccc(F)c(Cl)c3)ccn12 | 0
Cc1ccc(-c2ccc3c(ccc4sc5c(c43)NC[C@@H](C)N=C5N(C)C)n2)cn1 | 0
CN1C(=O)C(Nc2ccccc2)=C(c2ccccc2)C1=O | 0
CCn1c(-c2ccoc2)nc2cnccc21 | 0
COc1cc(Nc2ccnc3ccc(C(F)(F)F)cc23)cc(OC)c1OC | 32
O=C(Nc1n[nH]c2cc(-c3ccccc3F)ccc12)C1CC1 | 0
COC(=O)c1c(-c2ccccc2)c2cc(Br)ccc2c(=O)n1Cc1ccc(NC(=O)CCC(=O)O)cc1 | 0
Cn1c(=O)c(F)c(Nc2ccc(I)cc2F)c2c(=O)n(OC[C@H](O)CO)cnc21 | 21
O=C(Nc1n[nH]c2nc(-c3ccccc3)c(Br)cc12)C1CC1 | 20
Nc1nc(N)c2nc(-c3ccccc3)[nH]c2n1 | 14
COc1cc(OC)cc(-c2cc3cnc(N)nc3nc2NC(=O)NC(C)(C)C)c1 | 0
CCS(=O)c1ccc(-c2coc3ccc(-c4nnc(C)o4)cc23)cc1 (stereo not drawn) | 0
Cc1cccc(-c2nc(Nc3ccc4c(cnn4C)c3)c3ccccc3n2)n1 | 37
Cl.NS(=O)(=O)c1cccc(Nc2cc(-c3ccc(F)cc3)n[nH]2)c1 | 0
CCc1nc(-c2cccc(C)c2)c(-c2ccncc2)s1 | 1
COc1ccc(-c2cc3c(C)nc(N)nc3n([C@H]3CC[C@H](OCCO)CC3)c2=O)cn1 | 0
CCC(=O)c1c(-c2ccccc2)c2cc(Cl)ccc2c(=O)n1Cc1cc(S(C)(=O)=O)n(CC(N)=O)n1 | 31
CCC(=O)c1c(-c2ccccc2)c2cc(Cl)ccc2c(=O)n1Cc1cc(S(C)(=O)=O)n(CC(F)F)n1 | 0
OCCCNc1nccc(-c2c(-c3cccc(C(F)(F)F)c3)nn3cc(C(F)(F)F)ccc23)n1 | 0
CN1C(=O)C(Nc2cc(Cl)c(O)c(Cl)c2)=C(c2ccc(Cl)cc2)C1=O | 0
Nc1nccc2scc(-c3ccc4c(c3)CCN4C(=O)Cc3ccccc3)c12 | 19
COc1ccc(-n2cnc3c(N)ncnc32)cc1 | 12
Cc1c(Cn2c(C)nn3c(=O)cc(N4CCO[C@H](C)C4)nc23)cccc1C(F)(F)F | 0
COc1cc2ncn(-c3cc(OCc4ccncc4)c(C(N)=O)s3)c2cc1OC | 0
COc1ccc(-c2coc3ccc(-c4nnc(SCc5cccc(C#N)c5)o4)cc23)cc1 | 2
CCC(=O)c1c(-c2ccccc2)c2cc(Cl)ccc2c(=O)n1Cc1cc(C(=O)NC2CC2)n(C)n1 | 0
COc1cc2ncn(-c3cc(OCc4ccc(S(C)(=O)=O)cc4)c(C(N)=O)s3)c2cc1OC | 0
COc1ccc(-c2cc3c(C)nc(N)nc3n([C@H]3CC[C@H](O)CC3)c2=O)cn1 | 0
FC(F)(F)c1ccc(-c2ncn(CCCN3CCOCC3)c2-c2ccncc2)cc1 | 0
CCc1ccc(-c2ccc3c(c2)-c2nn(C)cc2S(=O)(=O)N3C)cc1 | 23
COc1cc(Nc2nccc(N3CCC(NC(=O)C4COc5ccccc5O4)C3)n2)cc(OC)c1OC (stereo not drawn) | 2
O=C(NCc1cccs1)c1cc(C(=O)c2c(Cl)cccc2Cl)c[nH]1 | 0
O=C1NC(=O)C(c2ccccc2)=C1Nc1cccc(O)c1 | 0
CCCC(=O)Nc1n[nH]c2ncc(-c3cccc4ccccc34)cc12 | 0
COc1cc(Nc2nccc(N3CCC(NC(=O)C(C)c4ccc(Cl)cc4)C3)n2)cc(OC)c1OC (stereo not drawn) | 0
COc1cccc(C2=C(Nc3cccc(C(=O)O)c3)C(=O)NC2=O)c1 | 0
